system: SK-MEL-5; assay: NCI tumour cell line growth inhibition, 48 h
Active and inactive are the calls of the source. Rule as the data show it: active = GI50 up to about 1.1 µM and inactive = higher.
Allowed answers: active, inactive

Would you please look over these solved cases?
Compound	Assigned Label
COc1ccc(N(C)Sc2ccccc2)cc1	inactive
COC(=O)C(CCC#N)(CCC#N)C(=O)OC	inactive
O=C(N/N=C/c1ccccc1O)c1ccccc1Nc1ccccc1C(=O)N/N=C/c1ccccc1O	active
O=c1cc(NNc2ccc(F)cc2)[nH]c(=O)[nH]1	inactive
C=CCc1cccc(/C=N\N/C(N)=N/O)c1O	inactive

I'd appreciate the recorded outcome for CC1CC/C(=C\c2ccc(Cl)cc2)C2OC(N)=C(C#N)C(c3ccc(Cl)cc3)=C12 (centres undefined) from this test.
inactive

I'd appreciate the recorded outcome for CCCCn1c2c(n(CCCC)c1=S)-c1c(n(CCCC)c(=S)n1CCCC)S[Se][Se]S2 from this test.
inactive

I'd appreciate the recorded outcome for CC1OC(OC2C(O[C@H]3CC[C@@]4(C)C(=CC[C@H]5[C@@H]6C[C@@H]7O[C@]8(CC[C@@H](C)CO8)[C@@H](C)[C@@H]7[C@@]6(C)CC[C@@H]54)C3)OC(CO)C(O)C2O)C(O)C(O)C1O (some centres undefined) from this test.
inactive

I'd appreciate the recorded outcome for O=C(c1ccccc1)C(C(=O)c1ccccc1)C1(O)C(=O)c2ccccc2C1=O from this test.
inactive

I'd appreciate the recorded outcome for O=C1C=Cc2c1csc2Br from this test.
inactive

I'd appreciate the recorded outcome for COc1cc([C@@H]2c3cc4c(cc3[C@H](OC3OC5COC(c6ccco6)OC5C(O)C3O)C3COC(=O)[C@@H]32)OCO4)cc(OC)c1OC (some centres undefined) from this test.
inactive

I'd appreciate the recorded outcome for Cc1cc2c(cc1Cl)SC(NNCCO)=NS2(=O)=O from this test.
inactive
